Each recorded value in this set is attributed to the supplement of paper PMC12669032.

System: Akkermansia muciniphila
method summary: growth AUC relative to DMSO control (median of replicates) (fraction); higher = more growth (less inhibition), active = hit call of the paper
condition summary: 20 µM; 24 h
Give growth AUC for every item shown.
One number for each entry.

CCOP(=S)(OCC)SCCS(=O)CC (stereo not drawn)    1.04
CCC(=O)Nc1ccc(Cl)c(Cl)c1    0.797
CS(=O)(=O)c1ccc(C(=O)C2C(=O)CCCC2=O)c(Cl)c1COCC(F)(F)F    1.07

For the 7 compounds below, give their growth AUC values.
1. COCc1cnc(C2=NC(C)(C(C)C)C(=O)N2)c(C(=O)O)c1 (stereo not drawn)
2. CNC(=O)CSP(=O)(OC)OC
3. CNC(=O)Oc1cccc(N=CN(C)C)c1.Cl
4. CCN(CC)c1nc(C)cc(OP(=S)(OC)OC)n1
5. O=c1oc2ccccc2c(O)c1C1CC(c2ccc(-c3ccc(Br)cc3)cc2)Cc2ccccc21 (stereo not drawn)
6. O=C1OCC2C1C1(Cl)C(Cl)=C(Cl)C2(Cl)C1(Cl)Cl (stereo not drawn)
7. Oc1ccc(C(c2ccc(O)cc2)(C(F)(F)F)C(F)(F)F)cc1

Found:
1: 1.12; 2: 1.07; 3: 1.18; 4: 0.948; 5: 0.966; 6: 1.09; 7: 1.03

Parameter requested: growth AUC. Apply to each item below.
1. COC(=O)C(C)N(C(=O)Cc1ccccc1)c1c(C)cccc1C (stereo not drawn)
2. CCCN(CCC)C(=O)SCc1ccccc1

Found:
0.959
1.04

For every item below, please supply its growth AUC.
1. Oc1ccc(Cl)cc1
2. CN(C(=O)COc1nc2ccccc2s1)c1ccccc1
3. COc1cc(OC)nc(NC(=O)NS(=O)(=O)c2ncccc2C(=O)N(C)C)n1
4. Clc1ccccc1Cl
5. COc1nc(C)nc(NC(=O)NS(=O)(=O)c2ccccc2Cl)n1
6. CC1(C)[C@H](/C=C(\Cl)C(F)(F)F)[C@@H]1C(=O)O[C@@H](C#N)c1cccc(Oc2ccccc2)c1

Found:
1. 0.989
2. 1.06
3. 1
4. 0.952
5. 0.942
6. 1.14

Working through the 3 compounds below one at a time, give growth AUC for each.
1. O=C(NC(=O)c1c(F)cccc1F)Nc1ccc(Cl)c(Oc2ncc(C(F)(F)F)cc2Cl)c1
2. COP(=S)(OC)SCN1C(=O)c2ccccc2C1=O
3. O=C1C(Cl)=C(Cl)C(=O)c2ccccc21

Found:
1: 1.14; 2: 0.901; 3: 0.907

====

System: Parabacteroides distasonis
method summary: growth AUC relative to DMSO control (median of replicates) (fraction); higher = more growth (less inhibition), active = hit call of the paper
condition summary: 20 µM; 24 h
Short version: growth AUC at least 1 is True, less is False.

CCOc1cc(OP(=S)(OC)OC)nc(CC)n1    False

Lookup: Check this compound for growth AUC at or above 1: `CCN(CC)c1nc(C)cc(OP(=S)(OC)OC)n1`
Found: False

Lookup: API: above_or_equal(metric=growth AUC, cutoff=1) for item `CCCN(CCC)C(=O)SCc1ccccc1`
Found: False

====

I'd appreciate it if you could supply growth AUC values for the items below.
Test system: Odoribacter splanchnicus
method summary: growth AUC relative to DMSO control (median of replicates) (fraction); higher = more growth (less inhibition), active = hit call of the paper
condition summary: 20 µM; 24 h
Answers are plain numbers.

Some compounds with recorded growth AUC:
CCN(Cc1ccc(Cl)nc1)/C(=C/[N+](=O)[O-])NC    0.95
CCOP(=S)(OCC)Oc1ccc([N+](=O)[O-])cc1    1.02
COP(=O)(OC)OC1=C(Cl)C2C=CCC12 (stereo unspecified)    0.892
COC(=O)COc1cc(Cl)c(Cl)cc1Cl    0.974
N#Cc1nn(-c2c(Cl)cc(C(F)(F)F)cc2Cl)c(N)c1SC(F)(F)F    0.571

Okay, now this compound:
Lookup: Please report growth AUC for the following compound: CCC1COC(Cn2cncn2)(c2ccc(Cl)cc2Cl)O1 (stereo unspecified)
Found: 0.983

====

System: Roseburia intestinalis
method summary: growth AUC relative to DMSO control (median of replicates) (fraction); higher = more growth (less inhibition), active = hit call of the paper;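 active = AUC reduced over 20% with Padj below 0.05 in at least 2 of 3 replicates; inactive = otherwise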
condition summary: 20 µM; 24 h
The categories you may choose from are active, inactive

Some solved cases for reference:
C[C@H]1[C@H](c2ccc(Cl)cc2)SC(=O)N1C(=O)NC1CCCCC1    inactive
CCOC(=O)/C=C(C)/C=C/C[C@@H](C)CCCC(C)C    inactive

Lookup: Per the assay record, what outcome was assigned to `O=C1C=CC(=O)C=C1` ?
Found: inactive

Lookup: Could you please tell me the result logged for O=c1oc2ccccc2c(O)c1C1CC(c2ccc(OCc3ccc(C(F)(F)F)cc3)cc2)Cc2ccccc21 (mixture of isomers) in this assay?
Found: active

Lookup: For `CCCN(CCC)c1c([N+](=O)[O-])cc(C(C)C)cc1[N+](=O)[O-]` , which call appears in the assay record?
Found: inactive

Lookup: In this assay, the call recorded for `CC(C)N(C)S(=O)(=O)NC(=O)c1cc(-n2c(=O)cc(C(F)(F)F)n(C)c2=O)c(F)cc1Cl` was what?
Found: inactive

Lookup: What classification did `CS/C(C)=N/OC(=O)N(C)SN(C)C(=O)O/N=C(\C)SC` end up with in this test?
Found: inactive

Lookup: Returns: the outcome recorded for `c1cc2ccc3cccc4ccc(c1)c2c34` in this assay.
Found: inactive

Lookup: What is the recorded call for this compound in the test? `CCCCN(CC)C(=O)SCCC`
Found: inactive

Lookup: Hi team, can someone confirm the assay call for `Clc1cccc(C(Cl)(Cl)Cl)n1` ?
Found: inactive

Lookup: Call for entry `CS(=O)(=O)NC(=O)c1cc(Oc2ccc(C(F)(F)F)cc2Cl)ccc1[N+](=O)[O-]` :
Found: inactive

Lookup: Could you kindly confirm the outcome this assay logged for CC1(C)CC/C(=C\c2ccc(Cl)cc2)C1(O)Cn1cncn1 (stereo unspecified) ?
Found: inactive

Lookup: // param item: `O=[N+]([O-])c1c(Cl)c(Cl)c(Cl)c(Cl)c1Cl` ; yields the recorded call
Found: inactive

Lookup: Write down the call the test reported for this compound. Item: `CC(C)OC(=O)Nc1ccccc1`
Found: inactive

Lookup: Hi, sorry to bother you, what did the test record for `N#Cc1nn(-c2c(Cl)cc(C(F)(F)F)cc2Cl)c(N)c1S(=O)(=O)C(F)(F)F` ?
Found: inactive

Lookup: Tell me the recorded outcome of this test for ClC1(Cl)C2(Cl)C3(Cl)C4(Cl)C(Cl)(Cl)C5(Cl)C3(Cl)C1(Cl)C5(Cl)C24Cl (stereo unspecified) .
Found: inactive

Lookup: What did the test return for OC(c1ccc(F)cc1)(c1cncnc1)c1ccccc1Cl (stereo unspecified) ?
Found: inactive

Lookup: Hey, what did the test say about `COP(=S)(OC)Oc1ccc([N+](=O)[O-])cc1` ?
Found: inactive

Lookup: Each compound tested received a call. Report the one for `CC1=C(C(=O)Nc2ccccc2)SCCO1` .
Found: inactive

Lookup: Which result was noted for this compound in the test: O=C(NC(=O)c1c(F)cccc1F)Nc1ccc(OC(F)(F)C(F)OC(F)(F)F)c(Cl)c1 (stereo unspecified)
Found: inactive

Lookup: Could you check what this test reported for `COP(=O)(OC)Oc1ccc(S(C)(=O)=O)c(C)c1` ?
Found: inactive

====

Field: growth AUC. Provide a value for each of the molecules that follow.
Test system: Lactobacillus paracasei
method summary: growth AUC relative to DMSO control (median of replicates) (fraction); higher = more growth (less inhibition), active = hit call of the paper
condition summary: 20 µM; 24 h
Numbers only.

Here are 2 molecules together with their reported answers.
O=C(O)C(F)(F)C(F)(F)C(F)(F)C(F)(F)C(F)(F)C(F)(F)C(F)(F)F    0.966
CN(C)C(CSS(=O)(=O)c1ccccc1)CSS(=O)(=O)c1ccccc1    0.95

Parameter requested: growth AUC. Apply to each item below.
1. Cc1nc(N(C)C=O)nc(OC(=O)N(C)C)c1C
2. CSc1nc(NC(C)C)nc(NC(C)C)n1
3. CCCCN(CCCC)SN(C)C(=O)Oc1cccc2c1OC(C)(C)C2
4. O=C1C=CC(=O)C=C1
5. Cl.NC1=NCCN1Cc1ccc(Cl)nc1

Found:
0.985
0.944
0.981
1
1.06

Answer for every listed entry: what is its growth AUC? The entries follow.
1. C=C(C)[C@H]1Cc2c(ccc3c2O[C@@H]2COc4cc(OC)c(OC)cc4[C@@H]2C3=O)O1
2. CCOP(=O)(OCC)O/C(=C\Cl)c1ccc(Cl)cc1Cl
3. CC(C)(C)C(O)(CCc1ccc(Cl)cc1)Cn1cncn1 (stereo unspecified)
4. CCCCN(CC)c1c([N+](=O)[O-])cc(C(F)(F)F)cc1[N+](=O)[O-]

Found:
1. 0.954
2. 1.02
3. 0.968
4. 1.03
